This listing pairs molecules with measured LC90 (fiducial limits) against T. chilonis.
Test system: T. chilonis (parasitic wasp)
TEST SETTINGS: non-target parasitic wasp, mortality after 15 minutes of exposure
Give the number; µg/mL is assumed, so skip it.

Examples with their reported LC90 (fiducial limits) against T. chilonis follow.
MOLECULE: Cc1ccc(C(C)C)cc1O [Carvacrol]
TARGET SYSTEM: T. chilonis (parasitic wasp)
REPORTED: 7.08
--
MOLECULE: C=CC(C)(O)CCC=C(C)C (centres unmarked) [Linalool, 3,7-dimethylocta-1,6-dien-3-o1]
TARGET SYSTEM: T. chilonis (parasitic wasp)
REPORTED: 6.24
--
MOLECULE: CC(C)=C1CC[C@@H](C)CC1=O [(+)-Pulegone]
TARGET SYSTEM: T. chilonis (parasitic wasp)
REPORTED: 12.1

Let us examine a further case.
*Q* Supply measured LC90 (fiducial limits) against T. chilonis of C=CCc1ccc(OC)cc1 [Estragole] in your reply.
*A* 34.9
